Target: Gal4‐NOR‐1 (human NOR‐1 LBD) (Homo sapiens)
Construct: coding for the hinge region and LBD of the canonical isoform of NOR‐1
Sequence (Q92570 394-623 limits assumed): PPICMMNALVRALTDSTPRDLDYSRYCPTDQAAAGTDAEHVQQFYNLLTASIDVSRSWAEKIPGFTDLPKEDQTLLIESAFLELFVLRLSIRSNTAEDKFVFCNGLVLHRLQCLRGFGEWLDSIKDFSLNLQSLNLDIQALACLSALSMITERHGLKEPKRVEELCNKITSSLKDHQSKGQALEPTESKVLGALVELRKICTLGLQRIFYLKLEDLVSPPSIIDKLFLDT
Experiment: Gal4 hybrid reporter gene assay for NOR‐1 activity in HEK293T cells
Conditions: Gal4‐NOR‐1, HEK293T cells, n=4; read-out: IC50 (NOR‐1), inverse agonism
attribute measured: log10 of IC50 (log10 of the value in µM)
A difference of one corresponds to tenfold IC50; all values are log10 with IC50 in µM.

// solved cases for log10 of IC50 follow
COC(=O)c1c[nH]c2ccc(-c3ccccc3)cc12 [compound 20] = 0.60
COC(=O)c1c[nH]c2ccccc12 [compound 1] = 1.67
COC(=O)c1c[nH]c2ccc(Br)cc12 [compound 19, Methyl 5‐bromoindole‐3‐carboxylate] = 0.90

Given the entry COC(=O)c1c[nH]c2ccc(OC)cc12 [compound 18] , report its measured log10 of IC50.
1.63

Please give the measured log10 of IC50 for this compound: CC(=O)N1CCN(c2ccc(O)cc2)CC1 [compound 2]
1.86

Return reported log10 of IC50; argument: COC(=O)c1c[nH]c2ccc(Cl)cc12 [compound 14]
1.15

Fill blank: measured log10 of IC50 of the compound COC(=O)c1c[nH]c2ccc(C)cc12 [compound 17] is ____.
1.54
